experimental.details: Standard protocol for determination of kcat and KM (continuous spectrophotometric assay, Acetyl CoA hydrolysis at 235 nm)
Format: biochemical
experimental.conditions: purified protein; about 23° C.; pH 6.8; 0.2 mM acetyl CoA; glyphosate 0.125 to 10 mM
quantity.kind: Km (µM)
// note: answer is a bare numeric in µM

Worked examples, 2 molecules total:
molecule	quantity.kind	measured.value
SEQ ID NO: 441: GAT polypeptide (protein, 0_5B4, GAT polypeptide) MLEVKLINAEDTYELRHRILRPNQPLEACMYETDLLRGAFHLGGFYRGKLISIASFHQAEHSDLEGQKQYQLRGMATLEGFRDQKAGSSLIKHAEEILRKRGANLLWCNARTSASGYYKKLGFSEQGEVFDTPPVGPHILMYKRIT	Km	600
SEQ ID NO: 297: GAT polypeptide (protein, 12G7, GAT polypeptide) MIEVKPINAEDTYEIRHRILRPNQPLEACKYETDLLGGTFHLGGYYQGKLISIASFHKAEHSELEGQKQYQLRGMATLEGYREQKAGSTLIRHAEELLRKKGADLLWCNARTSVSGYYKKLGFSEQGEVYDIPPIGPHILMYKKLT	Km	3700

Please look at the following molecule next.
Ask: // lookup Km for SEQ ID NO: 332: GAT polypeptide (protein, 15_12D9, GAT polypeptide) MIEVKPINAEDTYEIRHRILRPNQPLEACKYETDLLRGTFHLGGYYRGKLVSIASFHQAEHPELEGQKQYQLRGMATLEEYREQKAGSTLIRHAEELLRKKGADLLWCNARTSASGYYKKLGFSEQGEVYDIPPVGPHILMYKKLT
Reply: 1400

These entries and their values trace back to patent US8008547B2.
